tested on: OVCAR-3; experiment: NCI tumour cell line growth inhibition, 48 h
Active and inactive are the calls of the source. No stated cut-off is given here; in the data, active = GI50 up to about 1.1 µM and inactive = higher.
quantity.measured: GI50

The examples below pair each entry with its known result.
NC(=S)N/N=C/C(=C/Nc1ccccc1)[N+](=O)[O-] | > 100 µM (inactive)
COc1ccc(NC(=O)/C(=C/c2ccc(N(CCC#N)CCC#N)cc2)NC(=O)c2cc([N+](=O)[O-])ccc2Cl)cc1 | 94.4 µM (inactive)
CCOc1cc(NC(C)=O)ccc1C(=O)NN1C(=O)C(Oc2ccccc2)C1c1ccc(O)c(OC)c1 (configuration not stated) | 41.5 µM (inactive)
O=c1c(F)cn(Cc2c(Cl)cccc2Cl)c(=O)n1Cc1c(Cl)cccc1Cl | > 31.6 µM (inactive)
CC1=CC(=O)/C(=C/N2C(=O)CNC2=S)C(=O)O1 | > 100 µM (inactive)

Ask | Query (compound): `CCCCCCCCCc1cc(-c2ccc(C=O)s2)sc1-c1ccc(C=O)s1` ; field requested: GI50
Reply | 16.7 µM (inactive)

Ask | Query (compound): CCCC/C=C1/CCC(CN(C)C)C1=O (configuration not stated) ; field requested: GI50
Reply | 1.94 µM (inactive)
